# Test system: NCI-H226 lung
# assay-explanation: NCI tumour cell line growth inhibition, 48 h; in the data active = GI50 below about 0.43 µM; inactive = the rest
Labels: true for active, false for inactive

INSERT INTO assay_data (molecule, answer_label) VALUES
  ('CSC1SCC2C(=O)N(C)C(C(C)C)C(=O)OCC(NC(=O)c3cnc4ccccc4n3)C(=O)NC(C)C(=O)N(C)C1C(=O)N(C)C(C(C)C)C(=O)OCC(NC(=O)c1cnc3ccccc3n1)C(=O)NC(C)C(=O)N2C (configuration not stated)', 'true'),
  ('Cc1ccccc1C[P+](c1ccccc1)(c1ccccc1)c1ccccc1', 'false'),
  ('COC1C(O)CC(OC2CC(OC3CC(O[C@@H]4C(=O)c5c(cc6cc(OC7CC(OC8CC(O)C(O)C(C)O8)C(O)C(C)O7)c(C)c(O)c6c5O)CC4[C@H](OC)[C@@H](O)C(C)=O)OC(C)C3O)OC(C)C2O)OC1C (some centres not stated)', 'true'),
  ('COc1c(Cl)[c]([Hg][O]C(C)=O)c(NCC(C)=O)c(OC)[c]1[Hg][O]C(C)=O', 'false'),
  ('O=C1CCC(N2C(=O)c3cccc(NCCOCCOCCNC(=O)c4cc5c(o4)C(=O)c4ccccc4C5=O)c3C2=O)C(=O)N1 (configuration not stated)', 'false'),
  ('CN1CCN(c2ccc(-c3cccc(CN4CCOCC4)c3)cc2NC(=O)c2c[nH]c(=O)cc2C(F)(F)F)CC1', 'false'),
  ('O=S(=O)(NCCNc1cc(-c2cn(-c3ccccc3)nc2-c2cccc(O)c2)ccn1)c1ccc(Br)cc1', 'false');

---

# Test system: MALME-3M melanoma
# assay-explanation: NCI tumour cell line growth inhibition, 48 h
Square brackets hold non-standard residues; d marks the D form. Peptide text beside a SMILES is read from it. Phe(4-NO2) = N[CH](Cc1ccc([N+](=O)[O-])cc1)C(=O)O
Below, each of the molecules is paired with its reported TGI value.
quantity-kind: TGI (µM)

INSERT INTO measurements (molecule, units_label, rel, readout_value) VALUES
  ('COC(=O)CCC(NC(=O)C(CCC(=O)OC)NC(=O)C(CCC(=O)OC)NC(=O)C(CCC(=O)OC)NC(=O)C(CCC(=O)OC)NC(=O)C(Cc1ccc([N+](=O)[O-])cc1)NC(=O)C(CCC(=O)OC)NC(=O)C(CCC(=O)OC)NC(=O)C(CCC(=O)OC)NC(=O)C(CCC(=O)OC)NC(=O)C(CCC(=O)OC)NC(C)=O)C(N)=O (stereo unspecified) (Ac-E(OMe)E(OMe)E(OMe)E(OMe)E(OMe)[Phe(4-NO2)]E(OMe)E(OMe)E(OMe)E(OMe)E(OMe)-NH2; configuration not given here)', 'µM', '>', 100),
  ('C[C@@]1(O)CCC[C@H]1n1c(=O)c(C(F)F)cc2cnc(NC3CCN(S(C)(=O)=O)CC3)nc21', 'µM', '=', 5.37),
  ('Nc1nc(Cc2ccccc2)nc(Cc2ccccc2)c1-c1ccccc1', 'µM', '=', 50.2),
  ('C/C=C(\C)C(=O)N1c2ccccc2CC1c1c(C)[nH]c2ccccc12 (stereo unspecified)', 'µM', '>', 100),
  ('Cn1c(O)c(C=Nc2ccc(Cl)cc2Cl)c(=O)n(C)c1=O', 'µM', '>', 100),
  ('O=C1c2cc([N+](=O)[O-])sc2C(=O)c2cc([N+](=O)[O-])sc21', 'µM', '=', 2.38);
